Assay: Human HepG2 cell viability assay in 384 well format
Assay type: toxicity, cell-based
Parameters: dose 125 nL, time 70.5 hour; concentration not given beside the values
Conditions: HepG2 cells, read-out: Inhibition
In this section, each of the compounds is paired with its reported cytotoxicity at 70.5 h.
Kindly provide the numeric value in % only, without the unit symbol.

As a guide, the following entries are already answered.
INSERT INTO results (compound, result_number) VALUES
  ('NC(=O)C1CCN(C(=O)c2cccc(CN3CCOCC3)c2)CC1', 8.77),
  ('CC(C)(C)OC(=O)NC(C)(C(N)=O)c1cccc(Cl)c1 (configuration not stated)', 25.4),
  ('Cc1ccc(S(=O)(=O)NCc2[nH]ncc2Br)cc1C', -8.92),
  ('c1cn(Cc2nnc(C3CCN(C4CCCCC4)CC3)n2C2CC2)cn1', -1.01),
  ('CCc1ncncc1C(=O)N1CCCN(Cc2ccc(C)cc2)CC1', 20.1),
  ('Cc1cc(NCCS(C)(=O)=O)nc2ccccc12', -1.98),
  ('Cc1cc(C)n(C2CN(c3nc(N)nc4c3CCCC4)C2)n1', -16.5),
  ('CCN1CCN(S(=O)(=O)N2CCc3ccccc3C2)[C@H]2CS(=O)(=O)C[C@H]21', -9.8),
  ('NS(=O)(=O)c1cnn(CCC(=O)N(C2CCCCC2)C2CC2)c1', -3.97),
  ('CCc1nnc(CNC(=O)CCN2CCN(c3cccc(C)c3)CC2)s1', -4.25);

Recorded cytotoxicity at 70.5 h for "CNC(=O)CCc1cc(C)nc(C2CCN(c3cnccn3)CC2)c1" , please?
0.777

Thanks! And "O=C(Nc1ccc(-c2ccccc2)cc1)N1C[C@@H]2CNC[C@]2(C(=O)O)C1" ?
-9.81

Next entry: Cc1nc(CN2CCCC(NCc3c(C)nc4sccn34)C2)no1 (configuration not stated)
1.63

Record: "Cn1nc(-c2ccccc2NC(=O)c2cncc(Br)c2)ccc1=O"
15.4

Another: OCCC1CN(c2ncnc3[nH]cnc23)CCN1Cc1ccccc1F (configuration not stated)
5.32

CCCc1nc(C)cc(N2CCNC(C(=O)Nc3ccc(C)nc3)C2)n1 (configuration not stated) , same question.
19.3

Note, next up: "COCC(=O)N1CCCn2c(CN3CCCC3)nnc2C1"
-4.43

----------
Assay: Human HepG2 cell viability assay in 384 well format
Type: toxicity, cell-based
Design: dose 125 nL, time 70.5 hour; concentration not given beside the values
Conditions: HepG2 cells, read-out: Inhibition
This listing pairs compounds with measured cytotoxicity at 70.5 h.
The figure you give is taken to be in %; do not add the unit.

Some compounds with recorded cytotoxicity at 70.5 h:
INSERT INTO results (compound, result_number) VALUES
  ('Cc1c(-c2ccccc2)nc2c(c(C)c(C)n2CCN(C)C)c1N', 13.6),
  ('CCn1c(C)nnc1SCCNC(=O)c1cnc(C(C)(C)C)nc1O', 14.5),
  ('Cc1nc(CN2CCCC(N(C)Cc3nnsc3Cl)C2)no1 (stereo not drawn)', -1.91),
  ('CCOC1CC2(CCN(C(=O)COC)CC2)c2cc(C)ccc21 (stereo not drawn)', -9.53),
  ('CSc1cccc(CN(C)C(=O)c2ccc(C3CCCNC3)cc2)c1 (stereo not drawn)', -7.25),
  ('Cc1cccc(N2CCN(CCNC(=O)c3ccnn3C)CC2)c1', -9.52),
  ('CC(=O)Nc1nc(C)c(S(=O)(=O)NCCc2ccccn2)s1', -3.16);

Form field: reported cytotoxicity at 70.5 h of "CCOC(=O)[C@]12CCCN(Cc3nccs3)C[C@H]1CN(S(C)(=O)=O)C2"
-6.29

----------
Experiment: Human HepG2 cell viability assay in 384 well format
Type: toxicity, cell-based
Design: dose 125 nL, time 70.5 hour; concentration not given beside the values
Conditions: HepG2 cells, read-out: Inhibition
MEASURED_ENDPOINT: cytotoxicity at 70.5 h (%)
Kindly provide the numeric value in % only, without the unit symbol.

Worked cases, cytotoxicity at 70.5 h given:
INSERT INTO assay_data (compound, measurement_units, result_number) VALUES
  ('Cc1cc(C)n(CC2CCCCN2C(=O)c2ccc3nncn3c2)n1 (stereo unspecified)', '%', -2.04),
  ('CC(C)NC(=O)CN(C)C1CCN(c2cnc3ccccc3n2)CC1', '%', 20.5);

Which cytotoxicity at 70.5 h is listed for "C[C@H]1CN(CC2CCOCC2)C[C@@]12CCN(Cc1cccnc1)C2=O" ?
-9.39

Could you do the same for Cc1sc2c(C3CCCN(S(C)(=O)=O)C3)nc(C)n2c1C (stereo unspecified) , please?
-9.83

And then "Cc1nc(N(C)C)ncc1C(=O)N[C@H]1Cc2ccccc2[C@@H]1N" , what is it?
-5.1

Can you check "Cc1cncc(C2CCN(Cc3cccn3C)CC2)n1" next?
11.8

----------
A collection of molecules and their measured cytotoxicity at 70.5 h
Assay: Human HepG2 cell viability assay in 384 well format
Assay type: toxicity, cell-based
Design: dose 125 nL, time 70.5 hour; concentration not given beside the values
Details: HepG2 cells, read-out: Inhibition
Quick reminder: number only, in %, skip the unit.

# example entries with known answers
INSERT INTO assay_data (molecule, measured_endpoint, measurement_units, result_number) VALUES
  ('CCOc1ccc(NC2CCN(C(C)C)C2=O)cn1 (stereo unspecified)', 'cytotoxicity at 70.5 h', '%', -3.98),
  ('CCCc1nnc2sc(C3CCN(C4CCN(C)CC4)CC3)nn12', 'cytotoxicity at 70.5 h', '%', -12.7),
  ('CNC(=O)[C@@H]1C[C@@H](NC(=O)c2ccc(OC)o2)CN1Cc1sccc1C', 'cytotoxicity at 70.5 h', '%', 1.26),
  ('Cc1nc(CN2CCCC(Nc3ncnc4c3CCC4)C2)no1 (stereo unspecified)', 'cytotoxicity at 70.5 h', '%', -7.99);

cytotoxicity at 70.5 h lookup needed for "O=C(c1ccccn1)N1CCN(c2cnnc(N3CCCC3)c2)CC1" , thanks.
-10.9

Same again, this time with "Cc1cccc(-c2nc(CN3CCOCS3(=O)=O)c(C)o2)c1"
-6.34

Would you mind doing "COc1ccc(C)cc1C1(CNc2cn[nH]c(=O)c2Cl)CCOCC1" as well?
-5.9

Would you kindly repeat that for "Cc1ccc(S(=O)(=O)NCCNc2cc(-n3cccc3)ncn2)c(C)c1" ?
-0.584

Item: "O=C(NCCn1ccnc1)N1CCN(c2nccs2)CC1"
16.8

And CCn1ncnc1CN1CCC(CNC(=O)c2cccc(C)c2)C1 (stereo unspecified) ?
-15.4

# iterate: Cc1noc(C(C)C)c1C(=O)N1CCOCC1CC(=O)c1ccco1 (stereo unspecified)
-5.66

----------
Experiment: Human HepG2 cell viability assay in 384 well format
Assay type: toxicity, cell-based
Set-up: dose 125 nL, time 70.5 hour; concentration not given beside the values
Conditions: HepG2 cells, read-out: Inhibition
The compounds listed here are annotated with their cytotoxicity at 70.5 h.
Number only, in %; omit the unit.

Examples with their reported cytotoxicity at 70.5 h follow.
INSERT INTO measurements (compound, result_number) VALUES
  ('O=C(NCc1csc(Br)c1)c1ccc(=O)[nH]n1', -15.6),
  ('Cn1cc(CCNC(=O)NC2CCN(Cc3ccccn3)CC2)cn1', 31.9),
  ('O=C(c1cccc(S(=O)(=O)NC[C@@H]2C[C@H](F)CN2)c1)N1CCCCC1', 4.39),
  ('CC(Cn1cccn1)C(=O)N1CCCN(Cc2cscn2)CC1 (stereo not given)', -0.68);

Turning now to a further record.
Consider the compound shown here: O=S(=O)(N1CCCC1)N1CCCCC1CCc1ccccc1 (stereo not given) What is its recorded cytotoxicity at 70.5 h?
-5.36

----------
Assay: Human HepG2 cell viability assay in 384 well format
Assay type: toxicity, cell-based
Parameters: dose 125 nL, time 70.5 hour; concentration not given beside the values
Settings: HepG2 cells, read-out: Inhibition
Form field: cytotoxicity at 70.5 h (one value per entry).
Write the numeric value and append its unit.

INSERT INTO measurements (compound, result) VALUES
  ('COCCN1C[C@@H](C)[C@@]2(COCCN(C(=O)c3cnc(C)cn3)C2)C1', '-5.26%');

Could you tell me which cytotoxicity at 70.5 h is on file for "Cc1c(COC(C)C)cccc1NC(=O)N1CC[C@H](O)C1" ?
-6.27%

Same again, this time with "Cc1ccc(C(=O)NCC2(O)CCOCC2)cc1F"
-1.08%

Same for "CN(Cc1cnn(C)c1)S(=O)(=O)N1CCCCC1"
-5.36%

Thanks! And "CCc1cc(=O)n(CCNC(=O)Nc2ccc(OC(F)(F)F)cc2)cn1" ?
-3.46%

Queued: CCC(C)[C@H](NC(=O)c1ccc(F)cc1-n1cnnn1)C(=O)OC (stereo not given in full)
-10.7%

Another compound to check: "Cc1cnc(NC(=O)N2CCCC2)s1"
-12%

And the next one, CN(c1ccncn1)C1CC2(CCN(C(=O)c3cccs3)C2)C1 (stereo not given) ?
-16.4%

Also, COc1cc(C)ccc1OCCC(=O)N1CCCC(n2cncn2)C1 (stereo not given) please.
-9.18%

Now consider Cc1nc(CCN)cc(N2CCC(O)(c3ccccc3)C2)n1 (stereo not given) and answer again.
-4.16%

And then "Cc1nc(N2CCCC2)nc(N2CCC(O)(C(=O)O)CC2)c1C" , what is it?
23.8%

Item: "CN(Cc1ccccn1)c1nccc(N2CCN[C@H]3CS(=O)(=O)C[C@H]32)n1"
8.37%

What about CC(C(=O)NCc1cccc(N2CCCC2=O)c1)S(C)(=O)=O (stereo not given) ?
0.0426%
